Tested on: 242566-281-R-J2-PDC complex spheroid viability;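 further: spheroids exposed to compounds for 7 days before readout; 100% = DMSO vehicle control wells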
MEASUREMENT DESCRIPTION: Anticancer human tumor 242566-281-R-J2-PDC patient-derived pancreatic carcinoma cell line growth inhibition [CLK]
CONDITION PARAMETERS: second compound 0.1 µM; first compound 3.16 µM; stronger effect = lower value
ENDPOINT LABEL: viability, T/C (%)

[[record]]
molecule = "CC1COCCN1c1cc(C2(S(C)(=N)=O)CC2)nc(-c2ccnc3[nH]ccc23)n1 (stereo not given) + CN1CCN(c2cc(C(=O)Nc3cc4cc(-c5cnn(C)c5)ccc4cn3)ccn2)CC1"
study_target = "242566-281-R-J2-PDC complex spheroid viability"
experimental_value = 62.6

[[record]]
molecule = "C=C(F)C(=O)N1CCN(c2nc(OCC3CCCN3C)nc3c2CCN(c2cccc4cccc(Cl)c24)C3)CC1CC#N (stereo not given) + CN1CCN(c2cc(C(=O)Nc3cc4cc(-c5cnn(C)c5)ccc4cn3)ccn2)CC1"
study_target = "242566-281-R-J2-PDC complex spheroid viability"
experimental_value = 67.7

[[record]]
molecule = "Nc1ccccc1NC(=O)c1ccc(CNC(=O)OCc2cccnc2)cc1 + CN1CCN(c2cc(C(=O)Nc3cc4cc(-c5cnn(C)c5)ccc4cn3)ccn2)CC1"
study_target = "242566-281-R-J2-PDC complex spheroid viability"
experimental_value = 31.6

[[record]]
molecule = "CC(CO)NC(=O)c1cc(-c2ccc(Cl)cc2)nn(-c2cnn(C)c2)c1=O (stereo not given) + CN1CCN(c2cc(C(=O)Nc3cc4cc(-c5cnn(C)c5)ccc4cn3)ccn2)CC1"
study_target = "242566-281-R-J2-PDC complex spheroid viability"
experimental_value = 101

[[record]]
molecule = "CC1(C)CCC(CN2CCN(c3ccc(C(=O)NS(=O)(=O)c4ccc(NCC5CCOCC5)c([N+](=O)[O-])c4)c(Oc4cnc5[nH]ccc5c4)c3)CC2)=C(c2ccc(Cl)cc2)C1 + CN1CCN(c2cc(C(=O)Nc3cc4cc(-c5cnn(C)c5)ccc4cn3)ccn2)CC1"
study_target = "242566-281-R-J2-PDC complex spheroid viability"
experimental_value = 107

